These measurements were taken from paper PMC12316891.

molecular target: BRD4 (BD1) (Homo sapiens, UniProt O60885); construct: A pET28 plasmid containing residues 44–168 of BRD4 (BD1), a 6xHis tag, a TEV protease cleavage site; 6xHis (N, cleaved yes); made in house; host or cells: E. coli Rosetta (D3); test: Differential scanning fluorimetry (DSF) single-dose thermal shift screening; format: binding; settings: DSF, compound 10 µM, BRD4 (BD1) 2 µM, n = 3, decimal comma; read-out: ΔTm ºC at [10 µM]
REPORTED_ENDPOINT: ΔTm at 10 µM
Report the figure along with its unit, number first.

Solved cases (3 shown):
1. COc1cccc(-n2c(C)nnc2SCC(=O)Nc2ccc(C(F)F)cc2)c1 [Compound 43]    1.99 °C
2. COC(=O)c1cc(CNC(=O)C=Cc2cnc(C)[nH]c2=O)ccc1Cl [Compound 87]    2.3 °C
3. COc1ccc(-n2c(C)nnc2SCC(=O)N2CC3(CCN(C)CC3)C2)cc1 [Compound 45]    2.18 °C

What value of ΔTm at 10 µM has been recorded for this entry: COc1ccc(C2(NCC(=O)Nc3cc(-n4nnnc4C)ccc3F)CCOCC2)cc1 [Compound 18] -0.7 °C

What value of ΔTm at 10 µM has been recorded for this entry: COc1cccc(-n2c(C)nnc2SCC(=O)N2CC3CCC2CN3C(=O)c2ccns2)c1 (centres unmarked) [Compound 35] 0.69 °C

What value of ΔTm at 10 µM has been recorded for this entry: CN(C)C(=O)Sc1cc(NC(=O)c2cn(C)c(=O)c3ccccc23)ccc1Cl [Compound 53] 1.09 °C

What value of ΔTm at 10 µM has been recorded for this entry: Cc1nnc2sc(C(=O)N3CCC4(CCC(NC(=O)Cc5csc(Cl)c5)CC4)CC3)c(N)c2c1C [Compound 60] 0.94 °C

What value of ΔTm at 10 µM has been recorded for this entry: Cn1ccnc1C1CCN(C(=O)c2nn(C)c(=O)c3ccccc23)C1 (centres unmarked) [Compound 13] 0.45 °C
